test target: MDM2 (Homo sapiens, UniProt Q00987)
Sequence (Q00987 1-125): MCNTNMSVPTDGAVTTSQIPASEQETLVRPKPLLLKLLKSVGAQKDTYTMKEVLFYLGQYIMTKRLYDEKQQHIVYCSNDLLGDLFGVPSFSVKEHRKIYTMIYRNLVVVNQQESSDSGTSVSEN
experiment description: Competitive fluorescence polarization assay for MDM2
Format: binding
measurement conditions: competitive FP assay, MDM2; read-out: Ki (MDM2)
Where a SMILES comes first, the peptide text is derived from it. Bridges are numbered along the chain shown (N, C = ends). [ ]: non-standard residue; d: D form. R8 = C=CCCCCCC[C@@](C)(N)C(=O)O; Cba = N[C@@H](CC1CCC1)C(=O)O; Chg = N[C@H](C(=O)O)C1CCCCC1; S5 = C=CCCC[C@](C)(N)C(=O)O
Quick reference for Ki among some compounds

Illustrative cases are given below, each with its answer.
CC(=O)N[C@@H](Cc1ccccc1)C(=O)N[C@]1(C)CCCCCCC=CCCC[C@@](C)(C(=O)N[C@@H](CCC(N)=O)C(=O)N[C@@H](Cc2c[nH]cn2)C(=O)N[C@H](C(=O)N[C@H](CC(C)C)C(N)=O)C2CCCCC2)NC(=O)[C@H](CC(C)C)NC(=O)[C@H](CCC(N)=O)NC(=O)[C@H](C(C)C)NC(=O)[C@H](Cc2c[nH]c3ccccc23)NC(=O)[C@H](Cc2ccc(O)cc2)NC(=O)[C@H](C)NC1=O [compound 40] (Ac-F[R8]AYWVQL[S5]QH[Chg][dL]-NH2; staple 2-9) :: 100 to 1000 nM
CCCC[C@H](NC(=O)[C@H](C)NC(=O)[C@H](C)NC(=O)[C@]1(C)CCCC=CCCCCCC[C@@](C)(NC(=O)[C@H](Cc2ccccc2)NC(=O)[C@@H](NC(=O)[C@H](CC(C)C)NC(=O)[C@H](C)NC(C)=O)[C@@H](C)O)C(=O)N[C@@H](C)C(=O)N[C@@H](Cc2ccc(O)cc2)C(=O)N[C@@H](Cc2c[nH]c3ccccc23)C(=O)N[C@@H](C)C(=O)N[C@@H](CCC(N)=O)C(=O)N[C@@H](CC(C)C)C(=O)N1)C(=O)N[C@@H](C)C(=O)N[C@@H](C)C(N)=O :: < 10 nM
CCCC[C@H](NC(=O)[C@H](C)NC(=O)[C@H](C)NC(=O)[C@]1(C)CCCC=CCCCCCC[C@@](C)(NC(=O)[C@H](Cc2ccccc2)NC(=O)[C@@H](NC(=O)[C@H](CC(C)C)NC(C)=O)[C@@H](C)O)C(=O)N[C@@H](C)C(=O)N[C@@H](Cc2ccc(O)cc2)C(=O)N[C@@H](Cc2c[nH]c3ccccc23)C(=O)N[C@@H](C)C(=O)N[C@@H](CCC(N)=O)C(=O)N[C@@H](CC(C)C)C(=O)N1)C(=O)N[C@@H](C)C(=O)N(C)CC(N)=O (single isomer, unassigned) :: < 10 nM
CC(=O)N[C@@H](CC(C)C)C(=O)N[C@H](C(=O)N[C@@H](Cc1ccccc1)C(=O)N[C@]1(C)CCCCCCC=CCCC[C@@](C)(C(=O)N[C@@H](CO)C(=O)N[C@@H](C)C(N)=O)NC(=O)[C@H](CC2CCC2)NC(=O)[C@H](CCC(N)=O)NC(=O)[C@H](C)NC(=O)[C@H](Cc2c[nH]c3ccccc23)NC(=O)[C@H](Cc2ccc(O)cc2)NC(=O)[C@H](CCC(=O)O)NC1=O)[C@@H](C)O (single isomer, unassigned) :: 10 to 100 nM

Consider the additional compound presented here.
*Q* Looking for the measured Ki of CC[C@H](C)[C@H](NC(=O)[C@H](C)NC(=O)[C@H](C)NC(=O)[C@]1(C)CCCC=CCCCCCC[C@@](C)(NC(=O)[C@H](Cc2ccccc2)NC(=O)[C@@H](NC(=O)[C@H](CC(C)C)NC(C)=O)[C@@H](C)O)C(=O)N[C@@H](C)C(=O)N[C@@H](Cc2ccc(O)cc2)C(=O)N[C@@H](Cc2c[nH]c3ccccc23)C(=O)N[C@@H](C)C(=O)N[C@@H](CCC(N)=O)C(=O)N[C@@H](CC2CCC2)C(=O)N1)C(=O)N[C@H](C)C(N)=O [compound 264] (Ac-LTF[R8]AYWAQ[Cba][S5]AAI[dA]-NH2; staple 4-11) , can you help?
*A* < 10 nM

---

test target: UniProt:Q00987
experiment description: Competitive fluorescence polarization assay for MDM2
Assay type: binding
measurement conditions: Ki (MDM2), competitive FP assay, MDM2
pKi: −log10 of the molar value.
recorded metric: pKi

CC(=O)N[C@@H](CC(C)C)C(=O)N[C@H](C(=O)N[C@@H](Cc1ccccc1)C(=O)N[C@]1(C)CCCCCCC=CCCC[C@@](C)(C(=O)N[C@@H](C)C(=O)N[C@@H](C)C(=O)N[C@@H](C)C(=O)N[C@@H](C)C(=O)N[C@@H](C)C(=O)N[C@@H](C)C(=O)N[C@H](C)C(N)=O)NC(=O)[C@H](CC(C)C)NC(=O)[C@H](CCC(N)=O)NC(=O)[C@H](C)NC(=O)[C@H](Cc2c[nH]c3ccccc23)NC(=O)[C@H](Cc2ccc(O)cc2)NC(=O)[C@H](C)NC1=O)[C@@H](C)O (single isomer, unassigned) [compound 316] :: > 8.00

--- query ---
*Q* Field request: pKi | item: CC(C)C[C@H](NC(=O)CN(C)C)C(=O)N[C@H](C(=O)N[C@@H](Cc1ccccc1)C(=O)N[C@]1(C)CCCCCCC=CCCC[C@@](C)(C(=O)N[C@@H](C)C(=O)N[C@@H](C)C(=O)N[C@@H](C)C(=O)N[C@@H](C)C(=O)N[C@@H](C)C(=O)N[C@H](C)C(N)=O)NC(=O)[C@H](CC(C)C)NC(=O)[C@H](CCC(N)=O)NC(=O)[C@H](C)NC(=O)[C@H](Cc2c[nH]c3ccccc23)NC(=O)[C@H](Cc2ccc(O)cc2)NC(=O)[C@H](CCC(=O)O)NC1=O)[C@@H](C)O (single isomer, unassigned) [compound 439]
*A* > 8.00

---

test target: UniProtKB Q00987
experiment description: Competitive fluorescence polarization assay for MDM2
Format: binding
measurement conditions: competitive FP assay, MDM2; read-out: Ki (MDM2)
Where a SMILES comes first, the peptide text is derived from it. Bridges are numbered along the chain shown (N, C = ends). [ ]: non-standard residue; d: D form. R8 = C=CCCCCCC[C@@](C)(N)C(=O)O; Chg = N[C@H](C(=O)O)C1CCCCC1; S5 = C=CCCC[C@](C)(N)C(=O)O; Ac3c = NC1(C(=O)O)CC1; Aib = CC(C)(N)C(=O)O
recorded metric: Ki

CC(=O)N[C@@H](Cc1ccccc1)C(=O)N[C@]1(C)CCCCCCC=CCCC[C@@](C)(C(=O)N[C@@H](C)C(=O)N[C@@H](C)C(=O)N[C@H](C(N)=O)C2CCCCC2)NC(=O)[C@H](CC(C)C)NC(=O)C2(CC2)NC(=O)[C@H](CCC(=O)O)NC(=O)[C@H](Cc2c[nH]c3ccccc23)NC(=O)[C@H](Cc2ccc(O)cc2)NC(=O)[C@H](C)NC1=O [compound 20] (Ac-F[R8]AYWE[Ac3c]L[S5]AA[Chg]-NH2; staple 2-9) :: 0.01 to 0.1 µM
CC(=O)N[C@@H](CC(C)C)C(=O)N[C@H](C(=O)N[C@@H](Cc1ccccc1)C(=O)N[C@]1(C)CCCCCCC=CCCC[C@@](C)(C(=O)N[C@@H](CO)C(=O)N[C@@H](C)C(=O)NC(C)(C)C(N)=O)NC(=O)[C@H](CC(C)C)NC(=O)[C@H](CCC(N)=O)NC(=O)[C@H](C)NC(=O)[C@H](Cc2c[nH]c3ccccc23)NC(=O)[C@H](Cc2ccc(O)cc2)NC(=O)[C@H](C)NC1=O)[C@@H](C)O [compound 10] (Ac-LTF[R8]AYWAQL[S5]SA[Aib]-NH2; staple 4-11) :: 0.01 to 0.1 µM

Continue with the next compound.
*Q* Request the reported Ki associated with CC(=O)N[C@@H](Cc1ccccc1)C(=O)N[C@]1(C)CCCCCCC=CCCC[C@@](C)(C(=O)N[C@@H](C)C(=O)N[C@@H](C)C(=O)N[C@@H](CC(C)C)C(N)=O)NC(=O)[C@H](CC(C)C)NC(=O)C2(CC2)NC(=O)[C@H](CCC(=O)O)NC(=O)[C@H](Cc2c[nH]c3ccccc23)NC(=O)[C@H](Cc2ccc(O)cc2)NC(=O)[C@H](C)NC1=O [compound 15] (Ac-F[R8]AYWE[Ac3c]L[S5]AAL-NH2; staple 2-9)
*A* 0.01 to 0.1 µM

---

test target: MDMX (Homo sapiens)
Sequence (O15151 1-125): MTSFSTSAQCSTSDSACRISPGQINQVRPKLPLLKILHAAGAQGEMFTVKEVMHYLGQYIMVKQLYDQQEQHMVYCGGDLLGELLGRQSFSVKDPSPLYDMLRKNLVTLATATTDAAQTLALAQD
experiment description: Competitive fluorescence polarization assay for MDMX
Assay type: binding
measurement conditions: competitive FP assay, read-out: Ki (MDMX)
pKi: −log10 of the molar value. Where a SMILES comes first, the peptide text is derived from it. Bridges are numbered along the chain shown (N, C = ends). [ ]: non-standard residue; d: D form. R8 = C=CCCCCCC[C@@](C)(N)C(=O)O; Cba = N[C@@H](CC1CCC1)C(=O)O; S5 = C=CCCC[C@](C)(N)C(=O)O; Nle = CCCC[C@H](N)C(=O)O
Recorded pKi, one value per entry.

Worked set:
CCCC[C@H](NC(=O)[C@H](Cc1c[nH]c2ccccc12)NC(=O)[C@H](C)NC(=O)[C@]1(C)CCCC=CCCCCCC[C@@](C)(NC(=O)[C@H](Cc2ccccc2)NC(=O)[C@@H](NC(=O)[C@H](CC(C)C)NC(C)=O)[C@@H](C)O)C(=O)N[C@@H](CCC(=O)O)C(=O)N[C@@H](Cc2ccc(O)cc2)C(=O)N[C@@H](Cc2c[nH]c3ccccc23)C(=O)N[C@@H](C)C(=O)N[C@@H](CCC(N)=O)C(=O)N[C@@H](CC2CCC2)C(=O)N1)C(=O)N[C@H](C)C(N)=O [compound 271] (Ac-LTF[R8]EYWAQ[Cba][S5]AW[Nle][dA]-NH2; staple 4-11) :: > 8.00
CC(=O)N[C@@H](CC(C)C)C(=O)N[C@H](C(=O)N[C@@H](Cc1cccc(Cl)c1)C(=O)N[C@]1(C)CCCCCCC=CCCC[C@@](C)(C(=O)N[C@@H](CO)C(=O)N[C@@H](C)C(=O)N[C@@H](C)C(N)=O)NC(=O)[C@H](CC(C)C)NC(=O)[C@H](CCC(N)=O)NC(=O)[C@H](C)NC(=O)[C@H](Cc2c[nH]c3ccccc23)NC(=O)[C@H](Cc2ccc(O)cc2)NC(=O)[C@H](CCC(=O)O)NC1=O)[C@@H](C)O (single isomer, unassigned) [compound 156] :: 7.00 to 8.00
CC(=O)N[C@@H](CC(C)C)C(=O)N[C@H](C(=O)N[C@@H](Cc1ccccc1)C(=O)N[C@]1(C)CCCCCCC=CCCC[C@@](C)(C(=O)N[C@@H](CO)C(=O)N[C@@H](C)C(=O)N[C@@H](C)C(N)=O)NC(=O)[C@H](CC2CCC2)NC(=O)[C@H](CCCNC(=N)N)NC(=O)[C@H](C)NC(=O)[C@H](Cc2c[nH]c3ccccc23)NC(=O)[C@H](Cc2ccc(O)cc2)NC(=O)[C@H](CCC(=O)O)NC1=O)[C@@H](C)O [compound 363] (Ac-LTF[R8]EYWAR[Cba][S5]SAA-NH2; staple 4-11) :: > 8.00
CCCC[C@H](NC(=O)[C@H](C)NC(=O)[C@H](C)NC(=O)[C@]1(C)CCCC=CCCCCCC[C@@](C)(NC(=O)[C@H](Cc2ccccc2)NC(=O)[C@@H](NC(=O)[C@H](CC(C)C)NC(C)=O)[C@@H](C)O)C(=O)N[C@@H](C)C(=O)N[C@@H](Cc2ccc(O)cc2)C(=O)N[C@@H](Cc2c[nH]c3ccccc23)C(=O)N[C@@H](CO)C(=O)N[C@@H](CCC(N)=O)C(=O)N[C@@H](CC(C)C)C(=O)N1)C(=O)N[C@@H](C)C(N)=O [compound 306] (Ac-LTF[R8]AYWSQL[S5]AA[Nle]A-NH2; staple 4-11) :: 7.00 to 8.00
CC[C@H](C)[C@H](NC(=O)[C@H](C)NC(=O)[C@H](C)NC(=O)[C@]1(C)CCC/C=C/CCCCCC[C@@](C)(NC(=O)[C@H](Cc2ccccc2)NC(=O)[C@@H](NC(=O)[C@H](CC(C)C)NC(C)=O)[C@@H](C)O)C(=O)N[C@@H](C)C(=O)N[C@@H](Cc2ccc(O)cc2)C(=O)N[C@@H](Cc2c[nH]c3ccccc23)C(=O)N[C@@H](C)C(=O)N[C@@H](CCC(N)=O)C(=O)N[C@@H](CC(C)C)C(=O)N1)C(=O)N[C@H](C)C(N)=O [compound 71] :: 7.00 to 8.00
CC(=O)N[C@@H](CC(C)C)C(=O)N[C@H](C(=O)N[C@@H](Cc1ccccc1)C(=O)N[C@]1(C)CCCCCCC=CCCC[C@@](C)(C(=O)N[C@@H](CO)C(=O)N[C@@H](C)C(N)=O)NC(=O)[C@H](CC2CCC2)NC(=O)[C@H](CCC(N)=O)NC(=O)[C@H](C)NC(=O)[C@H](Cc2c[nH]c3ccccc23)NC(=O)[C@H](Cc2ccc(O)cc2)NC(=O)[C@H](CCC(=O)O)NC1=O)[C@@H](C)O (single isomer, unassigned) [compound 711] :: 6.00 to 7.00

*Q* Returns the measured pKi for the input compound. Input: CCCC[C@H](NC(=O)[C@H](Cc1c[nH]cn1)NC(=O)[C@H](Cc1c[nH]cn1)NC(=O)[C@]1(C)CCCC=CCCCCCC[C@@](C)(NC(=O)[C@H](Cc2ccccc2)NC(C)=O)C(=O)N[C@@H](C)C(=O)N[C@@H](Cc2ccc(O)cc2)C(=O)N[C@@H](Cc2c[nH]c3ccccc23)C(=O)N[C@@H](C)C(=O)N[C@@H](CCC(N)=O)C(=O)N[C@@H](CC(C)C)C(=O)N1)C(=O)N[C@@H](CC(C)C)C(N)=O [compound 38] (Ac-F[R8]AYWAQL[S5]HH[Nle]L-NH2; staple 2-9)
*A* 7.00 to 8.00

*Q* Endpoint output: pKi of CC(=O)N[C@@H](CC(C)C)C(=O)N[C@H](C(=O)N[C@@H](Cc1ccccc1)C(=O)N[C@]1(C)CCCCCCC=CCCC[C@@](C)(C(=O)N[C@@H](CCCNC(=N)N)C(=O)N[C@@H](C)C(=O)N[C@@H](C)C(N)=O)NC(=O)[C@H](CC2CCC2)NC(=O)[C@H](CCC(N)=O)NC(=O)[C@H](C)NC(=O)[C@H](Cc2c[nH]c3ccccc23)NC(=O)[C@H](Cc2ccc(O)cc2)NC(=O)[C@H](CCC(=O)O)NC1=O)[C@@H](C)O [compound 364] (Ac-LTF[R8]EYWAQ[Cba][S5]RAA-NH2; staple 4-11) . Value?
*A* > 8.00
